- EXPERIMENT NOTES: AUC (0 to 24 hrs) in Sprague-Dawley rat at 500 mg/kg, po administered via gavage after 24 hrs using nanosuspension formulation by LC-MS/MS analysis
- Assay type: ADME, organism-based
- Design: route oral, dose 500 mg/kg, time <=24
- EXPERIMENTAL CONTEXT: in vivo
VALUE KIND: AUC(0-t)
# do not omit the unit; it follows the number

In: State the recorded AUC(0-t) for this entry: `Cn1c(=O)n(CC(=O)N2CCC2)c2cc(-c3ccc(C(F)(F)F)s3)cnc21`
Out: 156 µg·h/mL

---

- EXPERIMENT NOTES: Tmax in dog at 0.5 mg/kg, po by LC-MS/MS analysis
- Type: ADME, organism-based, Canis lupus familiaris
- EXPERIMENTAL CONTEXT: in vivo
VALUE KIND: Tmax
# do not omit the unit; it follows the number

In: State the recorded Tmax for this entry: `Cn1c(=O)n(CC(=O)N2CCC2)c2cc(-c3ccc(C(F)(F)F)s3)cnc21`
Out: 15 min

---

- EXPERIMENT NOTES: Drug level in Sprague-Dawley rat brain cerebellum at 0.03 mg/kg, iv after 30 min by LC-MS/MS analysis
- Type: ADME, organism-based
- EXPERIMENTAL CONTEXT: read-out: Drug uptake
VALUE KIND: concentration at 0.5 h (ng/mL)
Numeric answer only, unit ng/mL assumed.

In: State the recorded concentration at 0.5 h for this entry: `Cn1c(=O)n(CC(=O)N2CCC2)c2cc(-c3ccc(C(F)(F)F)s3)cnc21`
Out: 13.8

---

- EXPERIMENT NOTES: Half life in Sprague-Dawley rat at 2.5 mg/kg, po by LC-MS/MS analysis
- Format: ADME, organism-based
- EXPERIMENTAL CONTEXT: in vivo
VALUE KIND: half-life (h)
Numeric answer only, unit h assumed.

In: State the recorded half-life for this entry: `Cn1c(=O)n(CC(=O)N2CCC2)c2cc(-c3ccc(C(F)(F)F)s3)cnc21`
Out: 2.2

---

- EXPERIMENT NOTES: Half life in mouse at 0.5 mg/kg, iv by LC-MS/MS analysis
- Format: ADME, organism-based
- EXPERIMENTAL CONTEXT: in vivo
VALUE KIND: half-life (min)
Numeric answer only, unit min assumed.

In: State the recorded half-life for this entry: `Cn1c(=O)n(CC(=O)N2CCC2)c2cc(-c3ccc(C(F)(F)F)s3)cnc21`
Out: 54

---

- EXPERIMENT NOTES: Drug level in Sprague-Dawley rat brain cerebellum at 0.03 mg/kg, iv after 60 min by LC-MS/MS analysis
- Format: ADME, organism-based
- EXPERIMENTAL CONTEXT: read-out: Drug uptake
VALUE KIND: concentration at 1 h (ng/mL)
Numeric answer only, unit ng/mL assumed.

In: State the recorded concentration at 1 h for this entry: `Cn1c(=O)n(CC(=O)N2CCC2)c2cc(-c3ccc(C(F)(F)F)s3)cnc21`
Out: 11.9

---

- EXPERIMENT NOTES: Displacement of 3-[3H] 1-(azetidin-1-yl)-2-[6-(4-fluoro-3-methyl-phenyl)pyrrolo[3,2-b]pyridin-1-yl]ethanone from GluN1a/GluN2B receptor in […] measured after 2 hrs by liquid scintillation counting method
- Type: tissue-based, Cortex
VALUE KIND: pKi
// pKi: -log10(molar conc.)

In: State the recorded pKi for this entry: `Cn1c(=O)n(CC(=O)N2CCC2)c2cc(-c3ccc(C(F)(F)F)s3)cnc21`
Out: 7.82
